- Study Target: human DGKα (Homo sapiens (Human), UniProt P23743)
- Sequence (P23743 whole entry, looked up): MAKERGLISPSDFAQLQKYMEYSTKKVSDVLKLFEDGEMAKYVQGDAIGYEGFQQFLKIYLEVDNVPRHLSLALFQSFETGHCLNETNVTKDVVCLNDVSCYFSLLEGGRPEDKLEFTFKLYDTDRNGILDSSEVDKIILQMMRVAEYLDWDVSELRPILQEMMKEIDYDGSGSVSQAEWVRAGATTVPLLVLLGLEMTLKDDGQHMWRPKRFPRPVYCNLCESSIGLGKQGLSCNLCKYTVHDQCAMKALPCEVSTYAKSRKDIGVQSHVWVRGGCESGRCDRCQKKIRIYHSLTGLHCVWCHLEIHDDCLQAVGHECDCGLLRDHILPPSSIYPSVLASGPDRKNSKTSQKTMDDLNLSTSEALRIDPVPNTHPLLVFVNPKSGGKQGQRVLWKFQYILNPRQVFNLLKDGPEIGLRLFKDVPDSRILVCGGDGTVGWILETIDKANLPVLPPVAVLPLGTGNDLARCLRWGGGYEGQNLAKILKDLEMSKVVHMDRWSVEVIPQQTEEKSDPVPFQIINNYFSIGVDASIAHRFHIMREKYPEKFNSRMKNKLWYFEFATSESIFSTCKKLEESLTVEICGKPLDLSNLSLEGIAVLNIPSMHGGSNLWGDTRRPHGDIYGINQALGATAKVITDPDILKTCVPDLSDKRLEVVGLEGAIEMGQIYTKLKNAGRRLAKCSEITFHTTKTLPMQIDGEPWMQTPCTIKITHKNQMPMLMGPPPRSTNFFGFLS
- Assay Info: DGKα LIPGLO assay (extruded liposome substrate, ADP-Glo luminescence)
- Assay type: biochemical
- Measurement Parameters: liposome assay; read-out: DGK alpha LIPGLO IC50
Readout Name: pIC50
One number for each entry, as −log10 of the molar value.

CCC(c1ccc(OC(F)F)cc1)N1C[C@H](C)N(c2nc(=O)n(C)c3ccc(C#N)nc23)C[C@H]1CC (single isomer, unassigned) [Example 78] = 6.33
CC[C@@H]1CN(c2nc(=O)n(C)c3ccc(C#N)nc23)[C@@H](C)CN1C(c1ccc(OC(F)(F)F)cc1)c1cc(C2CC2)on1 (single isomer, unassigned) [Example 100] = 6.60

Here are 3 molecules. What values of pIC50 were reported for them?
1. CC[C@H]1CN(C(C)c2ccc(C3CC3)cc2F)[C@H](CC)CN1c1nc(=O)n(C)c2ccc(C#N)nc12 (single isomer, unassigned) [Example 40]
2. CC[C@H]1CN(C(C)c2ccc(OCC3CC3)cc2F)[C@H](CC)CN1c1nc(=O)n(C)c2ccc(C#N)nc12 (single isomer, unassigned) [Example 32]
3. C[C@@H]1CN(c2nc(=O)n(C)c3ccc(C#N)nc23)[C@@H](C)CN1C(c1ccc(F)cc1)c1ccc(F)cc1 [Example 124]

6.49
6.30
6.25
